run_description: In vitro metabolic stability, rat liver microsomes
Assay type: in vitro ADME
condition_context: NADPH-dependent, read-out: Apparent Degradation half-life
assay_metric: half-life (min)
Give the quantity in min, number only.

// OCCC#Cc1cc(-c2ccncc2)c(-c2ccc(F)cc2)s1 : half-life value = 16

---

run_description: In vitro metabolic stability, mouse liver microsomes
Assay type: in vitro ADME
condition_context: read-out: In vitro CLint (μL/min/mg protein)
assay_metric: microsomal CLint (µL/min/mg)
Quick note: give the figure in µL/min/mg, leave out the unit.

Looking up OCCC#Cc1cc(-c2ccncc2)c(-c2ccc(F)cc2)s1 , I found its microsomal CLint recorded as 184

---

experimental_target: active phosphorylated p38α MAPK (Homo sapiens (Human), UniProt Q16539)
Sequence (Q16539 whole entry): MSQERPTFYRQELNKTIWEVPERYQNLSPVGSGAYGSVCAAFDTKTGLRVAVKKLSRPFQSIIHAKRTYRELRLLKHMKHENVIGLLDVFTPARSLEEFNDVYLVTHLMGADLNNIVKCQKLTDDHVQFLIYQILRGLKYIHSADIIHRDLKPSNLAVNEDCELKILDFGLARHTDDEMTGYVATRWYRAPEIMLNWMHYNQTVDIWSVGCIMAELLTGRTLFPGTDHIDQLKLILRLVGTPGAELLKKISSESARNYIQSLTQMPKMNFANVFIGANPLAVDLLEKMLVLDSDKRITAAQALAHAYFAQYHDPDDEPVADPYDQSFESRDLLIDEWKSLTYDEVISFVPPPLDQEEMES
run_description: Fluorescence polarisation (FP) binding assay, active enzyme
condition_context: Table 5; read-out: Ki ± SEM (μM) to active p38α MAPK
Threshold 1 µM. Ki below it: y. Ki at it or above: n.

molecule	class_assignment
Nc1nc(F)c(F)c(-c2cc(-c3ccncc3)c(-c3ccc(F)cc3)s2)c1F [Compound 5.20]	y
O=C(c1cc(-c2ccncc2)c(-c2ccc(F)cc2)s1)N1CCNCC1 [Compound 5.14]	y

Lab note: next molecule to report on.
Problem: Quick check: Ki of NCCC#Cc1cc(-c2ccncc2)c(-c2ccc(F)cc2)s1 [Compound 5.7] under 1 µM?
Solution: y
